assay: chemical genetic growth profiling, strain panel (AID 1159580);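 further: tested at 20 µM; growth read once vehicle control cultures reached saturation at 30 °C; 1 = growth at the plate median or of vehicle wells; lower values mean less growth of the strain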; conditions: S. cerevisiae deletion strains, growth OD, locus YPL240C, strain hsp82, hits give low values
Out of some 5,500 compounds screened, about 2,000 (36%) were called active. About 18% were inconclusive and are not listed. The list shows a part of the results.
Endpoint Name: normalized growth
// print number alone

### Prompt Look up normalized growth: C[N+](C)(C)CCOP(=O)([O-])OP(=O)(O)OC[C@H]1OC(n2ccc(N)nc2=O)[C@H](O)[C@@H]1O (stereo partly drawn)
### Response 0.993

### Prompt Look up normalized growth: COC(=O)C1[C@H]2C[C@H]3c4[nH]c5ccccc5c4CCN3C[C@@H]2CC[C@@H]1O (stereo partly drawn)
### Response 0.995

### Prompt Look up normalized growth: Cc1cc(OC(=O)N2CCCCC2)c(C(C)C)cc1[N+](C)(C)C
### Response 1.01

### Prompt Look up normalized growth: CC(C)[C@H](N)C(=O)OCCOCn1cnc2c(=O)[nH]c(N)nc21
### Response 1.01

### Prompt Look up normalized growth: CNc1ccccc1C(=O)N1CCc2c([nH]c3ccccc23)C1=O
### Response 0.986

### Prompt Look up normalized growth: CC(=O)[C@H]1CCC2C3C[C@H](C)C4=CC(=O)CC[C@]4(C)C3[C@@H](O)C[C@@]21C (stereo partly drawn)
### Response 0.989

### Prompt Look up normalized growth: COc1ccc(-c2cc(=O)c3c(O)cc(OC)c(OC)c3o2)c(OC)c1
### Response 1.02

### Prompt Look up normalized growth: O=C(O)C1CC([C@@H]2CCCCN2)CN2CCCCC12 (stereo partly drawn)
### Response 0.977

### Prompt Look up normalized growth: CC(=O)O[C@]1(C(C)=O)CCC2C3C=C(Cl)C4=CC(=O)CC[C@]4(C)C3CC[C@@]21C (stereo partly drawn)
### Response 1

### Prompt Look up normalized growth: NC/C=C/C(=O)O
### Response 0.991

### Prompt Look up normalized growth: CC(=O)O[C@]1(C(C)=O)CCC2C3C=C(C)C4=CC(=O)CCC4(C)C3CCC21C (stereo partly drawn)
### Response 0.963

### Prompt Look up normalized growth: COC(=O)[C@@H]1C(O)CC[C@H]2CN3CCc4c([nH]c5ccccc45)[C@@H]3C[C@@H]21 (stereo partly drawn)
### Response 1.01

### Prompt Look up normalized growth: CNC1(C)C2CCC(C2)C1(C)C (stereo not drawn)
### Response 0.989
